TARGET_OR_SYSTEM: CB2 receptor (Mus musculus, UniProt P47936)
Construct: membranes were prepared from frozen mouse spleen; from tissue; host or cells: mouse spleen
Sequence (P47936 whole entry): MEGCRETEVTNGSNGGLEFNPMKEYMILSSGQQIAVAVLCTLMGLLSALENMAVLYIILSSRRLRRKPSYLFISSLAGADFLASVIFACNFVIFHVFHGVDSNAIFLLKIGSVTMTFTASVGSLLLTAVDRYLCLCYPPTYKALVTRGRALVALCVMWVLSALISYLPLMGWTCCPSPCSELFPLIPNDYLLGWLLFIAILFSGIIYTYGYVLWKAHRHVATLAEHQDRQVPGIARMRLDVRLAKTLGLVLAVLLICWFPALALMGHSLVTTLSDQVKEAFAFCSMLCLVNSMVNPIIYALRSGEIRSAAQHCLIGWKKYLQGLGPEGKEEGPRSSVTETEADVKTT
EXPERIMENTAL_DETAILS: biochemical
Assay type: binding
EXPERIMENTAL_CONDITIONS: mouse spleen membranes, [3H] CP-55,940; read-out: Ki(nM) CB2
Here, each record is paired with measured log10 Ki data.
The common logarithm of Ki in nM is what is listed.

The cases that follow already have their log10 Ki on record.
CCOC(=O)C1=NN(c2ccc(Br)cc2)C(C(=O)OCC)=NN1c1ccc(Br)cc1	2.30
O=C(C1=NN(c2ccccc2)C(C(=O)N2CCCCC2)=NN1c1ccccc1)N1CCCCC1	2.34
CCOC(=O)C1=NN(c2ccc(Cl)cc2Cl)C(C(=O)OCC)=NN1c1ccc(Cl)cc1Cl	4.00
CCOC(=O)C1=NN(c2ccc(Br)cc2)C(C(=O)OCC)=NN1c1ccc(Cl)cc1	1.48
CCOC(=O)C1=NN(c2ccc(Cl)cc2)C(C(=O)OCC)=NN1c1ccc(Cl)cc1	1.68

Quick note, log10 Ki for CCOC(=O)C1=NN(c2ccccc2)C(C(=O)NC2CC3CC(C2C)C3(C)C)=NN1c1ccccc1 (centres unmarked) landed at 2.91

Quick note, log10 Ki for CCOC(=O)C1=NN(c2ccc(Cl)cc2)C(C(=O)OCC)=NN1c1ccccc1 landed at 1.63

Quick note, log10 Ki for NC(=O)C1=NN(c2ccccc2)C(C(N)=O)=NN1c1ccccc1 landed at 4.00
